- Target Of Assay: dopamine D4.2 (h) (Homo sapiens, UniProt P21917, DEL265-296)
- Measurement Description: Receptor affinity, radioligand competition experiments
Assay Metric: Ki (nM)
Give bare numbers, in nM.

Per the record, `CCCN[C@H]1CCc2c(O)cccc2C1` has Ki of 30

---

- Target Of Assay: dopamine D5 (h) (Homo sapiens, UniProt P21918)
- Sequence (P21918 whole entry): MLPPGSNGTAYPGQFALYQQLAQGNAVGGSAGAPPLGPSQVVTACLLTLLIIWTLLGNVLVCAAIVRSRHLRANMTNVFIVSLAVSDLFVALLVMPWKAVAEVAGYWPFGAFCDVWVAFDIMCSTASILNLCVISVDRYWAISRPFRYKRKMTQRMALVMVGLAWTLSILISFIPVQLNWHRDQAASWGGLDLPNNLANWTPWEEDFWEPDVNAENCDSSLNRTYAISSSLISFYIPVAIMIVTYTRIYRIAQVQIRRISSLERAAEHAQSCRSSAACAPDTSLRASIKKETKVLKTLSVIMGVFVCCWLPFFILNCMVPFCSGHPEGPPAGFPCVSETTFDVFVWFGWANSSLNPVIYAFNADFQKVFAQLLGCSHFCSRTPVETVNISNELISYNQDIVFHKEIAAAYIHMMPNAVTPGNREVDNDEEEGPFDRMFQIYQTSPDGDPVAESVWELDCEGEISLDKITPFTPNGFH
- Measurement Description: Receptor affinity, radioligand competition experiments
Assay Metric: Ki (µM)
Give bare numbers, in µM.

GET /value?item= `CCCN[C@H]1CCc2c(O)cccc2C1` &field=Ki returns 2

---

- Target Of Assay: D4.4 (Homo sapiens, UniProt P21917)
- Sequence (P21917 1-419): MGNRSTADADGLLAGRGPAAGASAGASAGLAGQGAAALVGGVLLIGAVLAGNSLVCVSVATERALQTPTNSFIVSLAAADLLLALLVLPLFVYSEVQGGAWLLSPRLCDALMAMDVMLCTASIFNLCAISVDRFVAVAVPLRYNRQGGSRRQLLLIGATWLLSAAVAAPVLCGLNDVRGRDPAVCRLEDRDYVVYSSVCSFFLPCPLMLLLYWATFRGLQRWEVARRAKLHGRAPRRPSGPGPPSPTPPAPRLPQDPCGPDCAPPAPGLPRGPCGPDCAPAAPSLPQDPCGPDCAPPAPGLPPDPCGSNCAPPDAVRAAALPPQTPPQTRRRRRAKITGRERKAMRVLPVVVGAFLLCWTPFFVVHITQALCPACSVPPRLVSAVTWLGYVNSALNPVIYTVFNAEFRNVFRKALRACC
Assay Metric: EC50 (nM)
Give bare numbers, in nM.

For this compound ( `CCCN[C@H]1CCc2c(O)cccc2C1` ), measured EC50 is 23.4

---

- Target Of Assay: dopamine D4.4 (h) (Homo sapiens, UniProt P21917)
- Sequence (P21917 1-419): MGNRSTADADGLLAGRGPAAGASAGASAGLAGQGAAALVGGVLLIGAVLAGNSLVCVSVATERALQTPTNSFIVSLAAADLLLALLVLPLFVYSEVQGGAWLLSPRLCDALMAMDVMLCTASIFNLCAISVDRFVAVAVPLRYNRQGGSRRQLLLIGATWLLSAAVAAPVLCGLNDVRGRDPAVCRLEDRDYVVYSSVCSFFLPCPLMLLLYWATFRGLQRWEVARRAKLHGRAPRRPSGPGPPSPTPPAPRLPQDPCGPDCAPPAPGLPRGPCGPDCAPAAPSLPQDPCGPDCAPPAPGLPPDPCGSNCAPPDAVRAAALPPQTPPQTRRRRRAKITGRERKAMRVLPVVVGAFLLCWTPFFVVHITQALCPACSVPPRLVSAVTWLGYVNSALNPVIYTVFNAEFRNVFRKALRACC
Assay Metric: pKi
One number for each entry, as −log10 of the molar value.

Query `CCCN[C@H]1CCc2c(O)cccc2C1` yields pKi of 7.57

---

- Target Of Assay: dopamine D4.7 (h) (Homo sapiens, UniProt P21917)
Assay Metric: pKi
Numbers only, as −log10 of the molar value.

Note to self: pKi recorded for `CCCN[C@H]1CCc2c(O)cccc2C1` was 7.34

---

- Target Of Assay: D5 (Homo sapiens, UniProt P21918)
- Sequence (P21918 whole entry): as the sequence (P21918 whole entry) above
Assay Metric: EC50 (nM)
Answers are plain numbers, in nM.

Entry `CCCN[C@H]1CCc2c(O)cccc2C1` under D5 (Homo sapiens, UniProt P21918) had EC50 of 1310
